# experimentalSystem: Protein-glutamine gamma-glutamyltransferase (Homo sapiens)
# protocol: Inhibition of TG2 (unknown origin) using Cbz-Glu(gamma-p-nitrophenyl ester)Gly (AL5) as substrate and measured by colorimetric assay
Mark rule met only when Kinact stays strictly below 0.5 min⁻¹. Values equal to the cut-off are rule not met.

C=CC(=O)NCCCC[C@H](NC(=O)Cc1ccccc1C)C(=O)N1CCN(C(=O)c2cccc3ccccc23)CC1: rule not met
C=CC(=O)NCCCC[C@H](NC(=O)c1cccc2ccccc12)C(=O)N1CCN(C(=O)c2cccc3ccccc23)CC1: rule met

Bench note: check whether "C=CC(=O)NCCCC[C@H](NC(=O)C(C)C)C(=O)N1CCN(C(=O)c2cccc3ccccc23)CC1" shows Kinact below 0.5 min⁻¹
rule not met

Bench note: check whether "C=CC(=O)NCCCC[C@H](NC(=O)c1ccccc1F)C(=O)N1CCN(C(=O)c2cccc3ccccc23)CC1" shows Kinact below 0.5 min⁻¹
rule met

Bench note: check whether "C=CC(=O)NCCCC[C@H](NS(=O)(=O)Cc1ccccc1)C(=O)N1CCN(C(=O)c2cccc3ccccc23)CC1" shows Kinact below 0.5 min⁻¹
rule not met

Bench note: check whether "C=CC(=O)NCCCC[C@H](NC(=O)Cc1cccc(F)c1)C(=O)N1CCN(C(=O)c2cccc3ccccc23)CC1" shows Kinact below 0.5 min⁻¹
rule not met

Bench note: check whether "C=CC(=O)NCCCC[C@H](NC(=O)C1CCCCC1)C(=O)N1CCN(C(=O)c2cccc3ccccc23)CC1" shows Kinact below 0.5 min⁻¹
rule met

###

# experimentalSystem: Protein-glutamine gamma-glutamyltransferase (Homo sapiens)
# Sequence (P21980 whole entry): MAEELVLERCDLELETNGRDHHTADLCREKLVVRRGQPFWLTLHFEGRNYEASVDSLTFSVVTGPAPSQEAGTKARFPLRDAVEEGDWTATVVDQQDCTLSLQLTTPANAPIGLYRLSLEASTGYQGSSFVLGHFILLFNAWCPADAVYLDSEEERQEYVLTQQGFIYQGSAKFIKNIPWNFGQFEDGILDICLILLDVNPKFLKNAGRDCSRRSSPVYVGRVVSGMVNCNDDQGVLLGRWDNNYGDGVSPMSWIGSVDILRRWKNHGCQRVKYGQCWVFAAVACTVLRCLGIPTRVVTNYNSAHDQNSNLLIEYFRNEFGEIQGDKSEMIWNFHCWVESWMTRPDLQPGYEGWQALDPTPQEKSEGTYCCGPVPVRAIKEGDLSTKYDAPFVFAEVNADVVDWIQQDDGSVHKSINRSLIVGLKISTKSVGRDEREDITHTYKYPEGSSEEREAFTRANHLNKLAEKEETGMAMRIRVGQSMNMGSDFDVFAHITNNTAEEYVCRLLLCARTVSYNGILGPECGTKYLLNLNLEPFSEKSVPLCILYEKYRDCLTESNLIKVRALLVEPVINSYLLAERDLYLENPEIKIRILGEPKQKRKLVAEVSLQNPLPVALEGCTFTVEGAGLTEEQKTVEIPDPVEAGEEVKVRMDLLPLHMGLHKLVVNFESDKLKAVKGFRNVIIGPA
Ki values by entry
Number in µM, nothing else.

Past entries and their recorded results:
C=CC(=O)NCCCC[C@H](NC(=O)OCc1ccccc1)C(=O)N1CCN(C(=O)c2cccc3ccccc23)CC1: 4.8
C=CC(=O)NCCCC[C@H](NC(=O)OCc1ccccc1)C(=O)N1CCN(S(=O)(=O)c2cccc3c(N(C)C)cccc23)CC1: 3.8

Given "C=CC(=O)NCCCC[C@H](NC(=O)OCc1ccccc1)C(=O)NCCOCCOCCNS(=O)(=O)c1cccc2c(N(C)C)cccc12" , state its recorded Ki.
29

###

Ratio values by entry
# experimentalSystem: Protein-glutamine gamma-glutamyltransferase (Homo sapiens) (UniProt P21980)
# Sequence (whole entry): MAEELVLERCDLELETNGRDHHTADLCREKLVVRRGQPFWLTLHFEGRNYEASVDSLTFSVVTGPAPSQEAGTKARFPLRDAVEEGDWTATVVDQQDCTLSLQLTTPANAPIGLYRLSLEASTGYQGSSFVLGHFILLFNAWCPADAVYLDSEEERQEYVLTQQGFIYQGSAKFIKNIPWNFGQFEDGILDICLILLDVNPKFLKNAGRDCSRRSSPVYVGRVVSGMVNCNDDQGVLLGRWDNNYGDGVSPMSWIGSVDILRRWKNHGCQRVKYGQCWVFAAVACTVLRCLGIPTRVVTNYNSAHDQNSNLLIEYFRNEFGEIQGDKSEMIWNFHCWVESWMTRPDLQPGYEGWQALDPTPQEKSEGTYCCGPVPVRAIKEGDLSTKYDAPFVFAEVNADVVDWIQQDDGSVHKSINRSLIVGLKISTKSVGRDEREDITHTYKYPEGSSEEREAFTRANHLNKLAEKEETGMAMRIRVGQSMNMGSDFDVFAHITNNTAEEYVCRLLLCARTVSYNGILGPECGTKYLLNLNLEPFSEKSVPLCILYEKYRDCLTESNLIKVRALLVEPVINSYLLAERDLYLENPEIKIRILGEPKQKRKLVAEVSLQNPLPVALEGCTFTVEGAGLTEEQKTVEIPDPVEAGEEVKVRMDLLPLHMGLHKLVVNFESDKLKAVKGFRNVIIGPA
# protocol: Inhibition of TG2 (unknown origin) using Cbz-Glu(gamma-p-nitrophenyl ester)Gly (AL5) as substrate assessed as Kinact/Ki ratio and measured by colorimetric assay

Past entries and their recorded results:
C=CC(=O)NCCCC[C@H](NC(=O)OCc1ccccc1)C(=O)N1CCN(C(=O)c2cccc3ccccc23)CC1: 244 10^3/M/min
C=CC(=O)NCCCC[C@H](NS(=O)(=O)c1ccccc1)C(=O)N1CCN(C(=O)c2cccc3ccccc23)CC1: 7.1 10^3/M/min
C=CC(=O)NCCCC[C@H](NC(=O)Cc1ccccc1C)C(=O)N1CCN(C(=O)c2cccc3ccccc23)CC1: 352 10^3/M/min
C=CC(=O)NCCCC[C@H](NC(=O)c1cn(C)cn1)C(=O)N1CCN(C(=O)c2cccc3ccccc23)CC1: 16 10^3/M/min
C=CC(=O)NCCCC[C@H](NC(=O)CC(C)C)C(=O)N1CCN(C(=O)c2cccc3ccccc23)CC1: 66.7 10^3/M/min
C=CC(=O)NCCCC[C@H](NC(=O)Cc1cccc(Cl)c1)C(=O)N1CCN(C(=O)c2cccc3ccccc23)CC1: 290 10^3/M/min

Given "C=CC(=O)NCCCC[C@H](NC(=O)Cc1ccccc1Br)C(=O)N1CCN(C(=O)c2cccc3ccccc23)CC1" , state its recorded Ratio.
310 10^3/M/min

Given "C=CC(=O)NCCCC[C@H](NC(=O)Cc1ccccc1)C(=O)N1CCN(c2ccc([N+](=O)[O-])nc2)CC1" , state its recorded Ratio.
508 10^3/M/min

Given "C=CC(=O)NCCCC[C@H](NC(=O)Cc1cccc(F)c1)C(=O)N1CCN(C(=O)c2cccc3ccccc23)CC1" , state its recorded Ratio.
155 10^3/M/min

Given "C=CC(=O)NCCCC[C@H](NC(=O)c1ccc2ccccc2c1)C(=O)N1CCN(C(=O)c2cccc3ccccc23)CC1" , state its recorded Ratio.
36.5 10^3/M/min

###

# experimentalSystem: UniProt:P21980
# protocol: Inhibition of TG2 (unknown origin) using Cbz-Glu(gamma-p-nitrophenyl ester)Gly (AL5) as substrate and measured by colorimetric assay
Kinact values by entry
Number in min⁻¹, nothing else.

Past entries and their recorded results:
C=CC(=O)NCC(=O)N1CCN(S(=O)(=O)c2cccc3c(N(C)C)cccc23)CC1: 0.387
C=CC(=O)NCCCC[C@H](NC(=O)Cc1cccc(Cl)c1Cl)C(=O)N1CCN(C(=O)c2cccc3ccccc23)CC1: 0.46
C=CC(=O)NCCCC[C@H](NC(=O)Cc1ccccc1F)C(=O)N1CCN(C(=O)c2cccc3ccccc23)CC1: 0.46

Given "C=CC(=O)NCCCC[C@H](NC(=O)c1cncn1C)C(=O)N1CCN(C(=O)c2cccc3ccccc23)CC1" , state its recorded Kinact.
0.28

Given "C=CC(=O)NCCCC[C@H](NC(=O)CC1CCCCC1)C(=O)N1CCN(C(=O)c2cccc3ccccc23)CC1" , state its recorded Kinact.
0.26

Given "C=CC(=O)NCCCC[C@H](NC(C)=O)C(=O)N1CCN(C(=O)c2cccc3ccccc23)CC1" , state its recorded Kinact.
1.45

Given "C=CC(=O)NCCCC[C@H](NC(=O)OCc1ccccc1)C(=O)NCCOCCOCCNS(=O)(=O)c1cccc2c(N(C)C)cccc12" , state its recorded Kinact.
0.41

Given "C=CC(=O)NCCCC[C@H](NC(=O)CCc1ccccc1)C(=O)N1CCN(C(=O)c2cccc3ccccc23)CC1" , state its recorded Kinact.
0.6

###

Papp B→A values by entry
# Test system: P-gp
# protocol: Substrate activity at P-gp in dog MDCK cells assessed as apparent permeability across basolateral to apical membrane
# Format: ADME, cell-based, Canis lupus familiaris
# measurementConditions: MDCK-MDR1
Number in ×10⁻⁶ cm/s, nothing else.

C=CC(=O)NCCCC[C@H](NC(=O)Cc1ccccc1F)C(=O)N1CCN(C(=O)c2cccc3ccccc23)CC1: 2.8

Given "C=CC(=O)NCCCC[C@H](NC(=O)Cc1ccccc1C)C(=O)N1CCN(C(=O)c2cccc3ccccc23)CC1" , state its recorded Papp B→A.
3
